# Protocol description: Toxicity liver stage against HepG2, at 10uM
# Assay type: cell-based
# Parameters: test concentration 10 uM, cell line HepG2-A16-CD81EGFP
# Condition label: human, HepG2-A16-CD81EGFP cells; read-out: INHIBITION
# Lookup of reported cytotoxicity at 10 µM keyed by entry

- Molecule: "O=C(Nc1ccc2c(c1)C(=O)NC2)c1ccc(S(=O)(=O)C(F)(F)F)cc1"
  Unit string: "%"
  cytotoxicity at 10 µM: 36.9
- Molecule: "CCC(Nc1nnnn1-c1ccccc1)C(=O)Nc1ccccc1C (stereo not drawn)"
  Unit string: "%"
  cytotoxicity at 10 µM: -13.1
- Molecule: "CCn1ccnc1CN1CCN(CC(O)c2ccccc2)CC1 (stereo not drawn)"
  Unit string: "%"
  cytotoxicity at 10 µM: -7.41
- Molecule: "COc1ccc(NC(=O)NC(C)Cc2ccco2)cn1 (stereo not drawn)"
  Unit string: "%"
  cytotoxicity at 10 µM: -3.54
- Molecule: "Cc1cc(N2CCC(Cc3cnccn3)C2)ncn1 (stereo not drawn)"
  Unit string: "%"
  cytotoxicity at 10 µM: -3.24
- Molecule: "O=C(CCNC(=O)C1=Cc2ccccc2OC1)Nc1cccnc1"
  Unit string: "%"
  cytotoxicity at 10 µM: -0.956
- Molecule: "CCc1nn(C)c(Cl)c1CN1CCN(c2nc(C(N)=O)cs2)CC1"
  Unit string: "%"
  cytotoxicity at 10 µM: 8.81
- Molecule: "Cc1ccc(CN(C)C(=O)c2scnc2C)cc1"
  Unit string: "%"
  cytotoxicity at 10 µM: -6.8
- Molecule: "COc1ccc(C(=O)C2CCCN(Cc3ccncc3)C2)cc1OC (stereo not drawn)"
  Unit string: "%"
  cytotoxicity at 10 µM: -0.677
- Molecule: "CO[C@H]1COCCN(C(=O)c2cc(C)oc2C(F)(F)F)C1"
  Unit string: "%"
  cytotoxicity at 10 µM: -12.1
- Molecule: "COC(=O)c1cccc(C(=O)N(C)Cc2cccc(O)c2)c1"
  Unit string: "%"
  cytotoxicity at 10 µM: 9.85
- Molecule: "CCN(CC)C(=O)[C@@H]1C[C@H](NC(=O)c2ccn(C(C)(C)C)c2)CN1C"
  Unit string: "%"
  cytotoxicity at 10 µM: -19.3
- Molecule: "Cc1nc(CN2CCN3C[C@H](Oc4cncnc4)C[C@H]3C2)cs1"
  Unit string: "%"
  cytotoxicity at 10 µM: -81.4
- Molecule: "CCN(Cc1noc(C)n1)C(=O)CC1C(=O)NCCN1CC(C)(C)C (stereo not drawn)"
  Unit string: "%"
  cytotoxicity at 10 µM: 2.78
- Molecule: "COc1cccc(C(=O)Nc2n[nH]c(C3CCCO3)n2)c1 (stereo not drawn)"
  Unit string: "%"
  cytotoxicity at 10 µM: 6
- Molecule: "COCCOc1ncccc1CNC(=O)N1CCOCC1"
  Unit string: "%"
  cytotoxicity at 10 µM: -43.8
- Molecule: "CCn1cnnc1CNC(=O)N1CCCCCC1"
  Unit string: "%"
  cytotoxicity at 10 µM: -7.36
- Molecule: "CCn1nc(CC(C)C)cc1C(=O)N1CCN([C@H]2CCCC[C@@H]2O)CC1"
  Unit string: "%"
  cytotoxicity at 10 µM: -6.98
- Molecule: "Cc1cc(C)c2c(N3CCN(C(=O)N(C)C)CC3)ncnc2n1"
  Unit string: "%"
  cytotoxicity at 10 µM: -1.18
- Molecule: "FC(F)(F)c1cccc(C2(CNCc3ccncc3)CCOCC2)c1"
  Unit string: "%"
  cytotoxicity at 10 µM: -6.98
- Molecule: "CC1(C(=O)N2CCOCC2)CN(CC2CCOCC2)CCO1 (stereo not drawn)"
  Unit string: "%"
  cytotoxicity at 10 µM: 4.14
- Molecule: "COc1ccc(CNCC(C)Oc2ccccn2)cc1Cl (stereo not drawn)"
  Unit string: "%"
  cytotoxicity at 10 µM: 7.36
- Molecule: "CO[C@H]1COCCN(C(=O)c2ccno2)C1"
  Unit string: "%"
  cytotoxicity at 10 µM: 2.42
- Molecule: "Cn1nc(C2CCCN(Cc3cc(F)ccc3F)C2)c2nccnc21 (stereo not drawn)"
  Unit string: "%"
  cytotoxicity at 10 µM: -12.9
- Molecule: "Cn1cc(NC(=O)CNC(=O)N2CCN(c3ccc(F)cc3)CC2)cn1"
  Unit string: "%"
  cytotoxicity at 10 µM: 2.27
- Molecule: "COc1cccc(-c2cc(C3=NC(=CN4CCN(C)CC4)NO3)[nH]n2)c1"
  Unit string: "%"
  cytotoxicity at 10 µM: -7.54
- Molecule: "Cc1ccc(Cl)cc1-n1nnnc1C1(N2CCCC2)CCCC1"
  Unit string: "%"
  cytotoxicity at 10 µM: 1.18
- Molecule: "CC(C(=O)NCCOc1ccc2c(c1)OCO2)n1cncn1 (stereo not drawn)"
  Unit string: "%"
  cytotoxicity at 10 µM: -4.33
- Molecule: "O=C(NCc1cccnc1)[C@@H]1C[C@@H]2CCN(c3ncc(F)cn3)C[C@@H]2O1"
  Unit string: "%"
  cytotoxicity at 10 µM: -72.1
- Molecule: "Cc1noc(C)c1NC(=O)CCn1cc(Br)ccc1=O"
  Unit string: "%"
  cytotoxicity at 10 µM: 7.07
- Molecule: "CCCn1nc2c(cc1=O)CN(Cc1ccccn1)CC2"
  Unit string: "%"
  cytotoxicity at 10 µM: 1.53
- Molecule: "COc1ccc(CCNC(=O)CN2CCCC2c2noc(C)n2)cc1 (stereo not drawn)"
  Unit string: "%"
  cytotoxicity at 10 µM: 0.772
- Molecule: "Cc1nc(NC(=O)C2(C)CN(C)CCO2)sc1C (stereo not drawn)"
  Unit string: "%"
  cytotoxicity at 10 µM: 2.44
- Molecule: "CCOCCN1CCN(Cc2cccc(C(=O)N(C)C)c2)CC1"
  Unit string: "%"
  cytotoxicity at 10 µM: -13.5
- Molecule: "CC(C)n1ccnc1CN1CCCN(C(=O)c2cnn(C)c2)CC1"
  Unit string: "%"
  cytotoxicity at 10 µM: -22.4
- Molecule: "Cc1ccc(F)c2c1CCCN2C(=O)Cc1c(C)nn(C)c1C"
  Unit string: "%"
  cytotoxicity at 10 µM: 13.6
- Molecule: "CN(C)C(=O)CCCn1ccc(NC(=O)NCc2cccc(F)c2)n1"
  Unit string: "%"
  cytotoxicity at 10 µM: 6.85
- Molecule: "FC(F)CN1CCOC(Cn2cccn2)C1 (stereo not drawn)"
  Unit string: "%"
  cytotoxicity at 10 µM: -9.94
- Molecule: "CN(Cc1ncnn1C)c1ccnc(Cc2ccccc2)n1"
  Unit string: "%"
  cytotoxicity at 10 µM: -1.92
- Molecule: "Cc1cnn(CCNCc2nnc(-c3ccc(F)cc3)o2)c1"
  Unit string: "%"
  cytotoxicity at 10 µM: -43.9
- Molecule: "CC(O)CN1CCC(CN(C)CC(=O)NC2CCOCC2)CC1 (stereo not drawn)"
  Unit string: "%"
  cytotoxicity at 10 µM: -3.33
- Molecule: "COCc1cn(CC2CCN(Cc3cc(C)[nH]n3)CC2)nn1"
  Unit string: "%"
  cytotoxicity at 10 µM: -2.44
- Molecule: "O=C(CCc1cccnc1)N1CCCC(n2cncn2)C1 (stereo not drawn)"
  Unit string: "%"
  cytotoxicity at 10 µM: -10.9
- Molecule: "OC1(CNCCc2csc(-c3cccnc3)n2)CCNC1 (stereo not drawn)"
  Unit string: "%"
  cytotoxicity at 10 µM: 2.76
- Molecule: "CNC(=O)NC(=O)CN1CCCN(CC(F)(F)F)CC1"
  Unit string: "%"
  cytotoxicity at 10 µM: -2.37
- Molecule: "Cn1cnc(S(=O)(=O)N2C[C@H]3CC[C@@H](C2)N(Cc2ccccn2)C3)c1"
  Unit string: "%"
  cytotoxicity at 10 µM: 7.27
- Molecule: "O=C(Cc1ccco1)N1C[C@H]2CCC[C@@]2(COc2cccnc2)C1"
  Unit string: "%"
  cytotoxicity at 10 µM: -109
- Molecule: "Cc1cnc(CN2CC=C(c3c[nH]c4ncccc34)CC2)o1"
  Unit string: "%"
  cytotoxicity at 10 µM: 25

The reported numbers originate from ChEMBL document CHEMBL4513216.
